The measured values listed here are drawn from patent US10344025B2.

Property: IC50; scope: individual compounds
Target: purified recombinant human GAC (GLS1) (Homo sapiens (Human), UniProt O94925)
Sequence (O94925 other isoform, or with tags, fused parts or gaps): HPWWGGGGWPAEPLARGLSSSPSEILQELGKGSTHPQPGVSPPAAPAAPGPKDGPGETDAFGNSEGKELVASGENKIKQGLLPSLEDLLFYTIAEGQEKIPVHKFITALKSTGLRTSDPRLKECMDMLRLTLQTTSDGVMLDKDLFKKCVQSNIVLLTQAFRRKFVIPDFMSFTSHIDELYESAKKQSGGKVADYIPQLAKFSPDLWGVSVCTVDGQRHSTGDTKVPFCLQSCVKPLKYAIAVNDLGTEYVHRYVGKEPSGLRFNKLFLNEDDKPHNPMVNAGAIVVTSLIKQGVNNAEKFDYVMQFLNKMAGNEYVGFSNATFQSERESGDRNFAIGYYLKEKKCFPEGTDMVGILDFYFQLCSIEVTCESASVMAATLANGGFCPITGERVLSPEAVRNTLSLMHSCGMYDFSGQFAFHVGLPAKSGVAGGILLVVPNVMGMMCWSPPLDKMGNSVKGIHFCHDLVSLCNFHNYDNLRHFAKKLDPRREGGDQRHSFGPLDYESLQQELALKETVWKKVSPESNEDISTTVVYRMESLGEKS
Assay: GLS1 Enzymatic Activity Assay (dual-coupled enzymatic assay, resorufin/Amplex UltraRed readout);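 note: glutamate from GAC coupled via glutamate oxidase and peroxidase to resorufin, read as fluorescence (ex 530, em 590 nm) kinetically or at 20 min, four-parameter logistic IC50 fit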

>>> measured_value("O=C(CN1CC(F)C1)Nc1cn(CC(F)CCn2cc(C(=O)NCc3ccccn3)nn2)nn1 (centres unmarked)")
"500 to 5000 nM"
>>> measured_value("CNC(=O)c1cn(CCC(F)Cn2cc(C(=O)NCc3ccccn3)nn2)nn1 (centres unmarked)")
"500 to 5000 nM"
>>> measured_value("O=C(Cc1cccnc1)Nc1cn(CCCCn2cc(C(=O)NCc3cccc(OC(F)(F)F)c3)nn2)nn1")
"< 100 nM"

Using known records, supply IC50 for O=C(NCc1cc(OC(F)(F)F)ccc1F)c1cn(CCC(F)Cn2cc(C(=O)N[C@H](CO)c3ccccc3)nn2)nn1 (some centres unmarked) < 100 nM

Give a short answer stating reported IC50 for Cc1ccc(CNC(=O)c2cn(CCCCn3cc(NC(=O)CC4CCCC4)nn3)nn2)cn1 . 100 to 500 nM

State its IC50: O=C(CC1CC1)Nc1cn(CCCCn2cc(C(=O)NCC3CCCC3)nn2)nn1 500 to 5000 nM

Indicate its recorded IC50; the compound in question is CNC(=O)c1cn(CCCCc2ccc(NC(=O)Cc3cccc(Cl)c3F)nn2)nn1 < 100 nM

Output IC50 of CC(=O)Nc1nnc(CCC(F)Cn2cc(C(=O)NCc3cc(C(F)(F)F)ccn3)nn2)s1 (centres unmarked) < 100 nM
